Values were extracted from patent US11015061B2.

Reported ΔE (%) Heat resistance by item:
protocol_summary: Heat resistance test of heat ray shielding film
Format: physicochemical
cond: 200 hours at 100° C., absorbance integrated 400 to 900 nm
attribute_measured: ΔE (%) Heat resistance

[O]=[V+2].c1ccc(OCCCCc2ccc(CCCCOc3ccccc3)c3c2-c2nc-3nc3[n-]c(nc4nc(nc5[n-]c(n2)c2c(CCCCOc6ccccc6)ccc(CCCCOc6ccccc6)c52)-c2c(CCCCOc5ccccc5)ccc(CCCCOc5ccccc5)c2-4)c2c(CCCCOc4ccccc4)ccc(CCCCOc4ccccc4)c32)cc1; 3
CCOCCCCc1ccc(CCCCOCC)c2c1-c1nc-2nc2[n-]c(nc3nc(nc4[n-]c(n1)c1c(CCCCOCC)ccc(CCCCOCC)c41)-c1c(CCCCOCC)ccc(CCCCOCC)c1-3)c1c(CCCCOCC)ccc(CCCCOCC)c21.[O]=[V+2]; 2
COCCCCc1ccc(CCCCOC)c2c1-c1nc-2nc2[n-]c(nc3nc(nc4[n-]c(n1)c1c(CCCCOC)ccc(CCCCOC)c41)-c1c(CCCCOC)ccc(CCCCOC)c1-3)c1c(CCCCOC)ccc(CCCCOC)c21.[Cu+2]; 3
COc1cccc(OC)c1OCCCCc1ccc(CCCCOc2c(OC)cccc2OC)c2c1-c1nc-2nc2[n-]c(nc3nc(nc4[n-]c(n1)c1c(CCCCOc5c(OC)cccc5OC)ccc(CCCCOc5c(OC)cccc5OC)c41)-c1c(CCCCOc4c(OC)cccc4OC)ccc(CCCCOc4c(OC)cccc4OC)c1-3)c1c(CCCCOc3c(OC)cccc3OC)ccc(CCCCOc3c(OC)cccc3OC)c21.[Cu+2]; 3

---

protocol_summary: Absorption spectrum of toluene solution (maximum absorption, gram absorption coefficient)
Format: physicochemical
cond: at maximum absorption
Quick rule for you: gram absorption coefficient at 70000 mL/g/cm or higher means condition met, lower means condition not met.

COc1cccc(OC)c1OCCCCc1ccc(CCCCOc2c(OC)cccc2OC)c2c1-c1nc-2nc2[n-]c(nc3nc(nc4[n-]c(n1)c1c(CCCCOc5c(OC)cccc5OC)ccc(CCCCOc5c(OC)cccc5OC)c41)-c1c(CCCCOc4c(OC)cccc4OC)ccc(CCCCOc4c(OC)cccc4OC)c1-3)c1c(CCCCOc3c(OC)cccc3OC)ccc(CCCCOc3c(OC)cccc3OC)c21.[Cu+2]; condition not met
[O]=[V+2].c1ccc(OCCCCc2ccc(CCCCOc3ccccc3)c3c2-c2nc-3nc3[n-]c(nc4nc(nc5[n-]c(n2)c2c(CCCCOc6ccccc6)ccc(CCCCOc6ccccc6)c52)-c2c(CCCCOc5ccccc5)ccc(CCCCOc5ccccc5)c2-4)c2c(CCCCOc4ccccc4)ccc(CCCCOc4ccccc4)c32)cc1; condition met
COc1cccc(OCCCCc2ccc(CCCCOc3cccc(OC)c3)c3c2-c2nc-3nc3[n-]c(nc4nc(nc5[n-]c(n2)c2c(CCCCOc6cccc(OC)c6)ccc(CCCCOc6cccc(OC)c6)c52)-c2c(CCCCOc5cccc(OC)c5)ccc(CCCCOc5cccc(OC)c5)c2-4)c2c(CCCCOc4cccc(OC)c4)ccc(CCCCOc4cccc(OC)c4)c32)c1.[Cu+2]; condition not met
COc1cccc(OCCCCc2ccc(CCCCOc3cccc(OC)c3)c3c2-c2nc-3nc3[n-]c(nc4nc(nc5[n-]c(n2)c2c(CCCCOc6cccc(OC)c6)ccc(CCCCOc6cccc(OC)c6)c52)-c2c(CCCCOc5cccc(OC)c5)ccc(CCCCOc5cccc(OC)c5)c2-4)c2c(CCCCOc4cccc(OC)c4)ccc(CCCCOc4cccc(OC)c4)c32)c1.[O]=[V+2]; condition met
COCCCCc1ccc(CCCCOC)c2c1-c1nc-2nc2[n-]c(nc3nc(nc4[n-]c(n1)c1c(CCCCOC)ccc(CCCCOC)c41)-c1c(CCCCOC)ccc(CCCCOC)c1-3)c1c(CCCCOC)ccc(CCCCOC)c21.[O]=[V+2]; condition met
